target: Rtt102;Arp7;Arp9;Sth1(301-1097) (budding yeast;budding yeast;budding …, UniProt P53330;Q12406;Q05123;P32597 1-157;1-477;1-467;301-1097, |||); test: fluorescence anisotropy; 1 mM AMPPNP; Anisotropy: 20 mM HEPES pH 7.5, 50 mM NaCl, 2.5 mM MgCl2, 5% glycerol, 1 mM DTT, 0.1 mg/mL BSA, 1 mM AMPPNP or ADP, 50 nM DNA, 20 C; EMSA: 20 mM HEPES pH 7.5, 50 mM NaCl, 1 mM MgCl2, 5% glycerol, 1 mM DTT, 0.1 mg/mL BSA, 1 mM ADP or AMPPNP, room temperature; conditions: protein: recombinant;recombinant;recombinant;recombinant; copies: 1;1;1;1; label: 5'-fluorescein; strands 21 and 22 nt: 21 bp with 1 nt 5' overhang (T) on strand 2
Sequence (P53330 whole entry, chain 1 of 4): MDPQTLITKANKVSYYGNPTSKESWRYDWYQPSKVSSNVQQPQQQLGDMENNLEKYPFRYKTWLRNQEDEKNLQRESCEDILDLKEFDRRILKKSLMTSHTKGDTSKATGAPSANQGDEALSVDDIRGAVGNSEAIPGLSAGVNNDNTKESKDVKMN
Sequence (Q12406 whole entry, chain 2 of 4): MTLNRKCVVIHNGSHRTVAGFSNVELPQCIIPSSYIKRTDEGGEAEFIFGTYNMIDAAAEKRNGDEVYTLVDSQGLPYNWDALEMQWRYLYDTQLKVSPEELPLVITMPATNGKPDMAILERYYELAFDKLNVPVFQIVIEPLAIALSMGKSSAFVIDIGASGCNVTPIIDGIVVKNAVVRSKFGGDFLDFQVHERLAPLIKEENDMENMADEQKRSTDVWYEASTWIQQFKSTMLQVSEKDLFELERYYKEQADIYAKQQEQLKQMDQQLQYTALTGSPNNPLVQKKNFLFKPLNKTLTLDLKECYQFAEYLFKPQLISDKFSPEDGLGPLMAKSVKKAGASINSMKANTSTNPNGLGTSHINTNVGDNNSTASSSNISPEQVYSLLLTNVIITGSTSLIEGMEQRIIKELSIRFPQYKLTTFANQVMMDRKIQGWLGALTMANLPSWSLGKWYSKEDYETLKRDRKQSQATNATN
Sequence (Q05123 whole entry, chain 3 of 4): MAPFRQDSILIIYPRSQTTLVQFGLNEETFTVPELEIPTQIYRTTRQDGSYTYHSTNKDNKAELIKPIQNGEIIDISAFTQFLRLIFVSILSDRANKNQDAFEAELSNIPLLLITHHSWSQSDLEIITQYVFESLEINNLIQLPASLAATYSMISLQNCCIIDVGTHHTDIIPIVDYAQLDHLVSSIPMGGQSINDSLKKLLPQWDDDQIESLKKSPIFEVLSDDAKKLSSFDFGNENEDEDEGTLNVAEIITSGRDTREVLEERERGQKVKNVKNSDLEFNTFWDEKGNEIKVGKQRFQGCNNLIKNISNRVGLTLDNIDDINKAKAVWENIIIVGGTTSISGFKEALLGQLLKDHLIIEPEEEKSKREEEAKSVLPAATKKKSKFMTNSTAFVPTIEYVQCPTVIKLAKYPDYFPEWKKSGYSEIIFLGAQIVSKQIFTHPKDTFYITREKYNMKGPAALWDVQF
Sequence (P32597 301-1097, chain 4 of 4): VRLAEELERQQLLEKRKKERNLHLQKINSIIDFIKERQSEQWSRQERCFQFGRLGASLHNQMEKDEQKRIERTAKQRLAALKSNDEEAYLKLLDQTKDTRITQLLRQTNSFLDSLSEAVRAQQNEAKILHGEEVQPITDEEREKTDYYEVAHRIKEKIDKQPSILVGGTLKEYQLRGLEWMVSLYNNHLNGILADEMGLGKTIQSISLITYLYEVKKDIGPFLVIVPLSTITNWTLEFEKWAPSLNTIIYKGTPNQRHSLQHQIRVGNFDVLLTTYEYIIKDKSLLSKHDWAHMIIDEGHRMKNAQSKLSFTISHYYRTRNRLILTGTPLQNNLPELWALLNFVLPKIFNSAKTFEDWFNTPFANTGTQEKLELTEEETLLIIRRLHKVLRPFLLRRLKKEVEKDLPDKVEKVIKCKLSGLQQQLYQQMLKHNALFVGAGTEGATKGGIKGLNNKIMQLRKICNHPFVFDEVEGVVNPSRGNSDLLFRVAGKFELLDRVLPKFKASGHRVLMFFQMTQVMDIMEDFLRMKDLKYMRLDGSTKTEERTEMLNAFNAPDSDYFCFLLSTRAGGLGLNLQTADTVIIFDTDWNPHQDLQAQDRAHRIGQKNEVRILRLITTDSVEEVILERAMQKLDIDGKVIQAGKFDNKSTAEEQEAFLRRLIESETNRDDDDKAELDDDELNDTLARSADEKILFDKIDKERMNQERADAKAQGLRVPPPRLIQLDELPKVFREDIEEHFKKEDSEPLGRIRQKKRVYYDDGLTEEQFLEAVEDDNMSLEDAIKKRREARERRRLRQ
Readout: pKd
Keep in mind that pKd stands for -log10 of concentration in molar terms.

The reported value for fluorescein DNA duplex (dsDNA) DNA 1: TCCATGTCCATGGATACGTGG DNA 2: TCCACGTATCCATGGACATGGA in terms of pKd is 5.38
